Measured Combination Indices at % HIV Inhibition (Confidence Interval) 75% of individual entries
System: HIV-1 LAI
Experiment: microbe, parasite or virus in culture
Settings: combination with Compound 1, EC50 ratio 1:1; 75% HIV inhibition; 95% CI in parenthesis
Description: Virus and cell lines. The T-cell lines, MT-2 and PM-1 were obtained through the AIDS Research and Reference Reagent Program, NIAID, and were contributed by Dr. D. Richman and Dr. R. Gallo, respectively. […] Drug Susceptibility and Cytotoxicity Assays. […] On day-five post-infection, 20 μl from each well was harvested and quantitated by a reverse transcriptase (RT) assay, or in samples involving non-nucleoside RT inhibitors, an MTS assay. […] Cell viability was determined by an XTT assay. […]
property-measured: Combination Indices at % HIV Inhibition (Confidence Interval) 75%

1) CC(C)(C)NC(=O)[C@@H]1CN(Cc2cccnc2)CCN1C[C@@H](O)C[C@@H](Cc1ccccc1)C(=O)N[C@H]1c2ccccc2C[C@H]1O: 0.57 (0.45, 0.70)
2) Nc1nc(=O)n([C@@H]2CS[C@H](CO)O2)cc1F: 0.33 (0.27, 0.39)
3) COC(=O)N[C@H](C(=O)N[C@@H](Cc1ccccc1)[C@@H](O)CN(Cc1ccc(-c2ccccn2)cc1)NC(=O)[C@@H](NC(=O)OC)C(C)(C)C)C(C)(C)C: 0.58 (0.24, 0.93)
4) Nc1ccn([C@H]2CC[C@@H](CO)O2)c(=O)n1: 0.57 (0.36, 0.77)
5) Nc1ccn([C@@H]2CS[C@H](CO)O2)c(=O)n1: 0.59 (0.42, 0.76)
6) CON(Cc1ccc(F)cc1)C(=O)C=C(O)C(=O)O: 0.90 (0.70, 1.10)
7) Cc1cccc(C)c1OCC(=O)N[C@@H](Cc1ccccc1)[C@@H](O)C[C@H](Cc1ccccc1)NC(=O)[C@H](C(C)C)N1CCCNC1=O: 0.22 (0.14, 0.30)
8) c1cc(CN2CCCNCCNCCCNCC2)ccc1CN1CCCNCCNCCCNCC1: 0.27 (0.21, 0.33)
9) Cc1cn([C@H]2C=C[C@@H](CO)O2)c(=O)[nH]c1=O: 0.60 (0.42, 0.78)
10) Cc1c(O)cccc1C(=O)N[C@@H](CSc1ccccc1)[C@H](O)CN1C[C@H]2CCCC[C@H]2C[C@H]1C(=O)NC(C)(C)C: 0.78 (0.67, 0.88)
11) O=c1[nH]cnc2c1ncn2[C@H]1CC[C@@H](CO)O1: 0.69 (0.60, 0.78)
12) Cc1cn([C@H]2C[C@H](N=[N+]=[N-])[C@@H](CO)O2)c(=O)[nH]c1=O: 0.99 (0.72, 1.26)

====

Measured pEC50 of individual entries
test system: HIV-1 LAI; experiment: microbe, parasite or virus in culture; details: Human immunodeficiency virus 1, MT2, 120 h
pEC50: −log10 of the molar value.
property-measured: pEC50

1. CC(C)CN(C[C@@H](O)[C@H](Cc1ccccc1)NC(=O)O[C@H]1CCOC1)S(=O)(=O)c1ccc(N)cc1 [Amprenavir, amprenavir]: 7.68
2. c1cc(CN2CCCNCCNCCCNCC2)ccc1CN1CCCNCCNCCCNCC1 [AMD-3100]: 8.10
3. Nc1nc(NC2CC2)c2ncn([C@H]3C=C[C@@H](CO)C3)c2n1 [Abacavir, abacavir]: 6.40
4. CC(C)(C)NC(=O)[C@@H]1CN(Cc2cccnc2)CCN1C[C@@H](O)C[C@@H](Cc1ccccc1)C(=O)N[C@H]1c2ccccc2C[C@H]1O [Indinavir, indinavir]: 9.15
